Attribute: Mean relaxation SEM of denuded aortic rings expressed as % of KCl response
# Tested on: denuded aortic rings, GC A receptor
# experimental.details: Relaxation of noradrenaline constricted endothelium-denuded aortic rings (Example 11)
# Design: species or system rat
# condition.label: GC-A mediated
Positions of bridges follow the written chain, without caps; N, C: chain ends. Non-standard residues stand in square brackets, D forms with d. No end group written: not given here. pGlu = O=C1CC[C@@H](C(=O)O)N1; Nle = CCCC[C@H](N)C(=O)O
Only the number, expressed in %, is required.

substance	output.unit	measurement
ZSDSKIGNGCFGFPLDRIGSVSGLGCNRIMQNPPKKFSGE ([pGlu]SDSKIGNGCFGFPLDRIGSVSGLGCNRIMQNPPKKFSGE; disulfide 10-26 (inferred); not fully specified; ends not checked) [TNPc Z0]	%	61.5

Lookup: Using the record for SDSKIGNGCFGFPLDRIGSVSGLGCNRInQNPPKKFSGE (SDSKIGNGCFGFPLDRIGSVSGLGCNRI[Nle]QNPPKKFSGE; disulfide 9-25 (inferred); ends not checked) [TNPc Nle] , report its Mean relaxation SEM of denuded aortic rings expressed as % of KCl response.
Found: 61.0

Lookup: Looking for the measured Mean relaxation SEM of denuded aortic rings expressed as % of KCl response of SDSKISAGCFGFPLDRIGSVSGLGCNRIMQNPPKKFSGE (A portion of a natriuretic peptide) [TNPc A7S6] , can you help?
Found: 43.1

* * *

# Tested on: conscious rabbits
# experimental.details: Blood pressure and heart rate in conscious rabbits, intravenous infusion dose-response (Example 8)
# condition.label: Table 10B
Positions of bridges follow the written chain, without caps; N, C: chain ends. Non-standard residues stand in square brackets, D forms with d. No end group written: not given here. pGlu = O=C1CC[C@@H](C(=O)O)N1; Sec = N[C@@H](C[SeH])C(=O)O; Nle = CCCC[C@H](N)C(=O)O
quantity.name: MAP at final dose

Some substances with known MAP at final dose results, for comparison:
substance	MAP at final dose
SDSKISAGCFGFPLDRIGSVSGLGCNRIMQNPPKKFSGE (A portion of a natriuretic peptide) [TNPc A7S6]	56.3 mm Hg
SDSKIGNGUFGFPLDRIGSVSGLGUNRIMQNPPKKFSGE (SDSKIGNG[Sec]FGFPLDRIGSVSGLG[Sec]NRIMQNPPKKFSGE; ends and bridges not checked) [TNPc diseleno]	61.0 mm Hg
SDSKIGNGCFGFPLDRIGSVSGLGCNRInQNPPKKFSGE (SDSKIGNGCFGFPLDRIGSVSGLGCNRI[Nle]QNPPKKFSGE; disulfide 9-25 (inferred); ends not checked) [TNPc Nle]	53.4 mm Hg
ZSDSKIGNGCFGFPLDRIGSVSGLGCNRIMQNPPKKFSGE ([pGlu]SDSKIGNGCFGFPLDRIGSVSGLGCNRIMQNPPKKFSGE; disulfide 10-26 (inferred); not fully specified; ends not checked) [TNPc Z0]	63.3 mm Hg

Here is another substance to look at.
Lookup: // MAP at final dose lookup, key: SDSKISKGCFGFPLDRIGSVSGLGCNRIMQNPPKKFSGE (A portion of a natriuretic peptide) [TNPc K7S6]
Found: 60.3 mm Hg
